# Test system: Mus musculus
# testProtocol: Neurotoxicity in mouse assessed as inability to maintain equilibrium on rod at 100 mg/kg, po after 2 hrs by rotarod test relative to control
# Type: toxicity, organism-based
# Parameters: dose 100 mg/kg, route oral
# experimentalParameters: in vivo
In this section we review reported Activity values for a set of compounds.
measure: Activity (%)

[[record]]
entrysmiles = "COc1ccc(-c2nnc(N3CCN(S(=O)(=O)c4ccc(-c5ccccc5)cc4)CC3)o2)cc1"
targetortestsystem = "Mus musculus"
measuredresult = 0

[[record]]
entrysmiles = "COc1ccc(-c2nnc(N3CCN(S(=O)(=O)c4ccc(Oc5ccccc5)cc4)CC3)o2)cc1"
targetortestsystem = "Mus musculus"
measuredresult = 0

[[record]]
entrysmiles = "COc1ccc(-c2nnc(N3CCN(S(=O)(=O)c4ccc(Br)cc4)CC3)o2)cc1"
targetortestsystem = "Mus musculus"
measuredresult = 0

[[record]]
entrysmiles = "COc1ccc(-c2nnc(N3CCN(S(C)(=O)=O)CC3)o2)cc1"
targetortestsystem = "Mus musculus"
measuredresult = 25

[[record]]
entrysmiles = "COc1ccc(-c2nnc(N3CCN(S(=O)(=O)c4ccc(Br)c(C)c4)CC3)o2)cc1"
targetortestsystem = "Mus musculus"
measuredresult = 0

[[record]]
entrysmiles = "COc1ccc(-c2nnc(N3CCN(S(=O)(=O)c4ccc(C(C)(C)C)cc4)CC3)o2)cc1"
targetortestsystem = "Mus musculus"
measuredresult = 0

